Exercise: for every item that follows, state its recorded ΔTm.
A complete answer gives the number followed by the unit.

Entry `CCN(CC)CCNC(=O)c1c(C)[nH]c(/C=C2\C(=O)Nc3ccc(Cl)cc32)c1C` , UniProt Q00536 data, ΔTm value: 3.5 °C

Tested on UniProt Q00536: `N=C(N)NCCNS(=O)(=O)c1cccc2cnccc12` . Observed ΔTm: -0.7 °C

# value of ΔTm, UniProt Q00536, item `CC(=O)O/N=C1/C(=C2/C(=O)Nc3cc(Br)ccc32)Nc2ccccc21` = 2.1 °C

`O=C1Cc2c([nH]c3ccc([N+](=O)[O-])cc23)-c2ccccc2N1` on UniProt Q00536 gives ΔTm = 3.8 °C

Readout ΔTm for `CC(C)n1cnc2/c(=N/c3cccc(Cl)c3)nc(NCCO)[nH]c21` , test system UniProt Q00536, was 0.1 °C

----------
# target: Serine/threonine-protein kinase VRK1 (Homo sapiens) (UniProt Q99986)
# Sequence (Q99986 whole entry): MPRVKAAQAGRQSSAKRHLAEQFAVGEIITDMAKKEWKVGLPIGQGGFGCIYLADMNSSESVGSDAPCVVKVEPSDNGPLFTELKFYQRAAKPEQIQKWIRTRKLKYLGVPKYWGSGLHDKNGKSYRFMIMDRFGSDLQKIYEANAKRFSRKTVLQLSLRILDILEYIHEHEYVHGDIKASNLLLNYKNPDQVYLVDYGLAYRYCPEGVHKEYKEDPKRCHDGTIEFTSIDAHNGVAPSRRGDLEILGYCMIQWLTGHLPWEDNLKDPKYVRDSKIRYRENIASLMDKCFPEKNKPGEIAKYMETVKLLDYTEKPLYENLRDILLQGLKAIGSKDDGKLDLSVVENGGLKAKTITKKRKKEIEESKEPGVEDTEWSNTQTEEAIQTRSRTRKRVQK
Please go through the items and note down their ΔTm.
Give the value, in units of °C, as a plain number.

// sample `COc1cc(OC)c(/C=C2\C(=O)Nc3ccccc32)c(OC)c1` , its ΔTm was 0.6

The molecule listed as `CCN(CC)CCNC(=O)c1c(C)[nH]c(/C=C2\C(=O)Nc3ccc(Cl)cc32)c1C` has a reported ΔTm of 0.6

# molecule `N#CCCc1ccc2c(c1)-c1[nH]c3ccc([N+](=O)[O-])cc3c1CC(=O)N2` ; its ΔTm = 1.1

Noted for `NC(=O)c1ccc(-c2nc(-c3ccc4c(c3)OCCO4)c(-c3ccccn3)[nH]2)cc1` : its ΔTm reads 0.7

GET /value?item= `COc1ccc2c(c1)/C(=C/c1cnc[nH]1)C(=O)N2` &field=ΔTm returns 0.5

Value of ΔTm reported for the molecule C[S+]([O-])c1ccc(-c2nc(-c3ccc(F)cc3)c(-c3ccncc3)[nH]2)cc1 (centres undefined) is -0.1

The molecule listed as `Ic1cccc(CSc2nnc(-c3ccncc3)o2)c1` shows ΔTm equal to -0.2

For record `O=C1c2ccccc2-c2n[nH]c3cccc1c23` the listed ΔTm is 0

`CCN(CC)CCNC(=O)c1c(C)[nH]c(/C=C2\C(=O)Nc3ccc(F)cc32)c1C` yielded ΔTm of 6.8

So for `CCOC(=O)c1cnc2oc3ccc(O)cc3c2c1-c1ccccc1` , the logged ΔTm turned out to be 0.1

Recorded result, `CCCCc1c(-c2ccc(O)cc2)[nH]c2nccnc12` , ΔTm: -0.2

# ΔTm (molecule: `COc1cc2c(cc1OC)-c1n[nH]c(Nc3cccc(F)c3)c1C2` ) is 0.4

Documented ΔTm of `N#C/C(=C(/N)Sc1ccc(N)cc1)c1ccccc1C(F)(F)F` : 0.4

`Cn1cc(C2=C(c3cn(CCCSC(=N)N)c4ccccc34)C(=O)NC2=O)c2ccccc21` has a reported ΔTm of 1.6

----------
# target: Serine/threonine-protein kinase PLK1 (Homo sapiens) (UniProt P53350)
# Sequence (P53350 whole entry): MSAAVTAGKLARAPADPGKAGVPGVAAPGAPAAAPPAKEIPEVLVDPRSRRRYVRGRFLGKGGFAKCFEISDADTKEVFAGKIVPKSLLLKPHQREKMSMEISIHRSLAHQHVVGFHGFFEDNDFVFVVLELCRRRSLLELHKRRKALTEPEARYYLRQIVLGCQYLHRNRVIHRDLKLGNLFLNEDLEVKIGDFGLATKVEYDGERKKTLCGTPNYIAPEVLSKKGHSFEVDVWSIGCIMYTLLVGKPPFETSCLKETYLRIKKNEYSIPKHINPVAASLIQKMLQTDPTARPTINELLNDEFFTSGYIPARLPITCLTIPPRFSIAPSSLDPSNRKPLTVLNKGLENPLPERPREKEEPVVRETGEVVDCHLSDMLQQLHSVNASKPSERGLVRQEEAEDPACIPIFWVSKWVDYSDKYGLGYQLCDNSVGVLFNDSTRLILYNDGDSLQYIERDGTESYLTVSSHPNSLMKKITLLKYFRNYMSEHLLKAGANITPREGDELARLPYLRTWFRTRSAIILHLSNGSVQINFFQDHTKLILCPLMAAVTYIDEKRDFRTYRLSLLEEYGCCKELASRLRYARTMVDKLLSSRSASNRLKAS
# binarize ΔTm: threshold 0.6 °C inclusive, high side Satisfied, low side Not satisfied

Decide: is the reported value of ΔTm for `COc1cc(OC)c(/C=C2\C(=O)Nc3ccccc32)c(OC)c1` equal to or greater than 0.6 °C?
Not satisfied

Threshold query (ΔTm >= 0.6 °C) on `COc1ccc2c(c1)/C(=C/c1cnc[nH]1)C(=O)N2`
Satisfied

Hi, just wondering whether `NCCNS(=O)(=O)c1cccc2c(Cl)cccc12` shows ΔTm of 0.6 °C or higher.
Not satisfied

Quick check: does `Nc1nc(Nc2ccc(S(N)(=O)=O)cc2)nn1C(=S)Nc1c(F)cccc1F` have ΔTm greater than or equal to 0.6 °C?
Satisfied

Is reported ΔTm greater than or equal to 0.6 °C here: `NC(=O)c1ccc2[nH]c(-c3ccc(Oc4ccc(Cl)cc4)cc3)nc2c1`
Satisfied

Hi, just wondering whether `Oc1ccc(-c2nc(-c3ccc(F)cc3)c(-c3ccncc3)[nH]2)cc1` shows ΔTm of 0.6 °C or higher.
Not satisfied

Does ΔTm meet or surpass 0.6 °C for `CCOC(=O)c1c(C)[nH]c(/C=C2\C(=O)Nc3ccccc32)c1C` ?
Not satisfied

Hi team, for `O=C1Nc2ccc(I)cc2/C1=C1/Nc2ccccc2/C1=N\O` , is the recorded ΔTm at or above 0.6 °C?
Not satisfied

Determine whether measured ΔTm meets or exceeds 0.6 °C for `CCN(CC)CCNC(=O)c1c(C)[nH]c(/C=C2\C(=O)Nc3ccc(F)cc32)c1C`
Satisfied

For this compound, is measured ΔTm 0.6 °C or higher? `CCOc1cc(/C=C(\C#N)C(N)=O)cc(CSc2ccccc2)c1O`
Satisfied

Say whether COc1ccc2c(c[n+](C)c3c4cc5c(cc4ccc23)OCO5)c1OC [CHELERYTHRINE CHLORIDE] shows ΔTm of 0.6 °C or more.
Not satisfied

Entry `Cc1ccc(NC(=O)c2cccc(N(C)C)c2)cc1NC(=O)c1ccc(O)cc1` : is its ΔTm no less than 0.6 °C?
Satisfied

Decide: ΔTm of `NS(=O)(=O)c1ccc(Nc2nc(OCC3CCCCC3)c3nc[nH]c3n2)cc1` >= 0.6 °C?
Satisfied

Does the reported ΔTm for `COc1cc(/C=C/C(=O)CC(=O)/C=C/c2ccc(O)c(OC)c2)ccc1O` fall at or above the 0.6 °C mark?
Satisfied

Tell me whether ΔTm is at least 0.6 °C here: `CC(C)[C@H](CO)Nc1nc(Nc2cc(N)cc(Cl)c2)c2ncn(C(C)C)c2n1`
Satisfied

Does `COc1cc2ncnc(Nc3cccc(Br)c3)c2cc1OC` have a reported ΔTm of at least 0.6 °C?
Not satisfied

State whether the measured ΔTm reaches 0.6 °C, counting equality as reaching it, for `CCN(CC)CCNC(=O)c1c(C)[nH]c(/C=C2\C(=O)Nc3ccc(Cl)cc32)c1C`
Not satisfied

Check if ΔTm >= 0.6 °C (inclusive). Item: `O=C1Nc2ccc(I)cc2/C1=C\c1cc(Br)c(O)c(Br)c1`
Not satisfied

Threshold query (ΔTm >= 0.6 °C) on `COc1cc(C[C@H]2C(=O)OC[C@@H]2Cc2ccc(OC)c(OC)c2)ccc1O`
Not satisfied

State whether the measured ΔTm reaches 0.6 °C, counting equality as reaching it, for `N#CC(C#N)=Cc1ccc(O)c(O)c1`
Not satisfied

Could you please find out whether `OC[C@H]1O[C@@H](n2cnc3cc(Cl)c(Cl)cc32)[C@H](O)[C@@H]1O` has ΔTm that meets 0.6 °C or exceeds it?
Not satisfied

Is ΔTm for `C#Cc1cccc(Nc2ncnc3cc(OCCOC)c(OCCOC)cc23)c1` at or above 0.6 °C?
Satisfied

I'd appreciate it if you could say whether COC(=O)[C@]1(O)C[C@@H]2O[C@@]1(C)n1c3ccccc3c3c4c(c5c6ccccc6n2c5c31)C(=O)NC4 (single isomer, unassigned) has ΔTm at least equal to 0.6 °C.
Satisfied

State whether the measured ΔTm reaches 0.6 °C, counting equality as reaching it, for `Nc1nccc(-c2c(-c3ccc(F)cc3)ncn2C2CCNCC2)n1`
Not satisfied

Exam item: decide whether the reported ΔTm for Cl.Cn1cc(C2=C(c3ccc4cc5n(c4c3)CCC(CN)C5)C(=O)NC2=O)c2ccccc21 (configuration not stated) is at least 0.6 °C.
Not satisfied

Confirm if ΔTm reported for the compound `COc1cc2c(cc1OC)-c1n[nH]c(Nc3cccc(F)c3)c1C2` is 0.6 °C or above.
Not satisfied

State whether the measured ΔTm reaches 0.6 °C, counting equality as reaching it, for `C[C@@H](N)[C@H]1CC[C@H](C(=O)Nc2ccncc2)CC1`
Not satisfied

Is ΔTm for `CCCNC(=O)Nc1ccc(Oc2ncnc3cc(OC)c(OC)cc23)cc1Cl` at or above 0.6 °C?
Not satisfied

Reported ΔTm reaches at least 0.6 °C for `O=C1Nc2ccccc2/C1=C/c1cnc[nH]1` ?
Satisfied

Answer whether ΔTm of `Cc1ccc(NC(=O)c2ccc(CN3CCN(C)CC3)cc2)cc1Nc1nccc(-c2cccnc2)n1` is greater than or equal to 0.6 °C.
Satisfied

Form field: ΔTm at least 0.6 °C? Entry: `c1ccc(-c2n[nH]c3c2oc2ccccc23)cc1`
Satisfied

For this compound, is measured ΔTm 0.6 °C or higher? `COc1cc2ncnc(Nc3ccc(NC(=O)c4ccccc4)cc3)c2cc1OC`
Not satisfied

Given the entry `CCCCc1c(-c2ccc(O)cc2)[nH]c2nccnc12` , answer whether its ΔTm meets or surpasses 0.6 °C.
Satisfied

I'd appreciate it if you could say whether `COc1ccc(COc2ccc(Cc3cnc(N)nc3N)cc2OC)cc1` has ΔTm at least equal to 0.6 °C.
Not satisfied

Confirm if ΔTm reported for the compound `N#C/C(=C\c1ccc(O)c(O)c1)C(=O)NCc1ccccc1` is 0.6 °C or above.
Satisfied
